Reference source for all entries: ChEMBL document CHEMBL1131038

assay: Ratio against rat A1 receptor and Human A3 receptor
We begin with a simple list: items and their reported Selectivity ratio.
Respond numerically, and do not add a unit to the figure.

{"columns": ["chemical string", "Selectivity ratio"],
 "data": [
  ["Nc1ccc(CC(=O)Nc2nc3ccc(Cl)cc3c3nc(-c4ccco4)nn23)cc1I", 4.4],
  ["NCCCCCCC(=O)Nc1nc2ccc(Cl)cc2c2nc(-c3ccco3)nn12", 0.33],
  ["C[C@@H](N)C(=O)Nc1nc2ccc(Cl)cc2c2nc(-c3ccco3)nn12", 0.17]
]}

Query string: Output measured Selectivity ratio for this item: NCCCCCC(=O)Nc1nc2ccc(Cl)cc2c2nc(-c3ccco3)nn12
Result string: 0.47

Query string: Provide only the value of recorded Selectivity ratio for COc1ccc(CC(=O)Nc2nc3ccc(Cl)cc3c3nc(-c4ccco4)nn23)cc1
Result string: 2.1

====

Entries and their measured Ki follow.
Sequence of the target: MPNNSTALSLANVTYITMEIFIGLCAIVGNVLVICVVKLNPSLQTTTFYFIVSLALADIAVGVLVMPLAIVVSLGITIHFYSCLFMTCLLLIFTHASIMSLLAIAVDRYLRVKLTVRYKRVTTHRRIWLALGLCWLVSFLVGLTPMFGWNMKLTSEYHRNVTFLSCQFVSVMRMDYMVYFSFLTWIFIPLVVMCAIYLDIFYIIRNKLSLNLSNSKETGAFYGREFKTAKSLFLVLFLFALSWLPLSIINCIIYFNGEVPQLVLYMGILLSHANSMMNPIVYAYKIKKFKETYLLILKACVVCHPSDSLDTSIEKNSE
Number only, in µM; omit the unit.

{"columns": ["chemical string", "numeric value"],
 "data": [
  ["O=C(/C=C/c1ccccc1)Nc1nc2ccc(Cl)cc2c2nc(-c3ccco3)nn12", 0.0721],
  ["O=C(Nc1nc2ccc(Cl)cc2c2nc(-c3ccco3)nn12)C(c1ccccc1)c1ccccc1", 0.000586],
  ["NCCC(=O)Nc1nc2ccc(Cl)cc2c2nc(-c3ccco3)nn12", 0.874],
  ["C[C@@H](C(=O)Nc1nc2ccc(Cl)cc2c2nc(-c3ccco3)nn12)c1ccccc1", 0.000468],
  ["O=C(CCCCC(=O)OCc1ccccc1)Nc1nc2ccc(Cl)cc2c2nc(-c3ccco3)nn12", 0.0447],
  ["Nc1ccc(CC(=O)Nc2nc3ccc(Cl)cc3c3nc(-c4ccco4)nn23)cc1I", 0.0493]
]}

Query string: Quote Ki reported for NCCCCCCC(=O)Nc1nc2ccc(Cl)cc2c2nc(-c3ccco3)nn12 please.
Result string: 0.346

Query string: // Input: Nc1ccc(CC(=O)Nc2nc3ccc(Cl)cc3c3nc(-c4ccco4)nn23)cc1 . Output its Ki only.
Result string: 0.00356

Query string: Look up and report measured Ki for this entry: COc1ccc(CC(=O)Nc2nc3ccc(Cl)cc3c3nc(-c4ccco4)nn23)cc1
Result string: 0.0144

Query string: Please list Ki recorded for the compound O=C(Cc1ccc(I)cc1)Nc1nc2ccc(Cl)cc2c2nc(-c3ccco3)nn12
Result string: 0.0629

====

Entries and their Selectivity ratio
assay: Ratio against rat A2A receptor and Human A3 receptor
Lab note: jot down the number only; don't add units.

Query string: Tell me Selectivity ratio reported for CC(C)(C)OC(=O)NCCCCCC(=O)Nc1nc2ccc(Cl)cc2c2nc(-c3ccco3)nn12
Result string: 1

Query string: Report measured Selectivity ratio; entry is O=C(Cc1cccc(Cl)c1)Nc1nc2ccc(Cl)cc2c2nc(-c3ccco3)nn12
Result string: 0.29

Query string: Provide only the value of recorded Selectivity ratio for C[C@@H](NC(=O)OC(C)(C)C)C(=O)Nc1nc2ccc(Cl)cc2c2nc(-c3ccco3)nn12
Result string: 0.41

Query string: Give the reported value of Selectivity ratio for this record: CC(C)(C)OC(=O)NCCC(=O)Nc1nc2ccc(Cl)cc2c2nc(-c3ccco3)nn12
Result string: 1.1

====

Quick reference: Selectivity ratio of the listed items.
assay: Ratio against rat A1 receptor and Human A3 receptor

Some solved entries appear below for comparison.
{"columns": ["compound", "Selectivity ratio"],
 "data": [
  ["C[C@H](C(=O)Nc1nc2ccc(Cl)cc2c2nc(-c3ccco3)nn12)c1ccccc1", 130],
  ["C[C@@H](NC(=O)OC(C)(C)C)C(=O)Nc1nc2ccc(Cl)cc2c2nc(-c3ccco3)nn12", 1],
  ["O=C(O)CCCC(=O)Nc1nc2ccc(Cl)cc2c2nc(-c3ccco3)nn12", 0.55]
]}

Query string: Quick one: give measured Selectivity ratio for CC(NC(=O)OC(C)(C)C)C(=O)Nc1nc2ccc(Cl)cc2c2nc(-c3ccco3)nn12 (centres undefined)
Result string: 0.66

====

test: Ratio against rat A2A receptor and Human A3 receptor
Criterion: Selectivity ratio strictly less than 0.1. Met: Yes. Not met: No.

# example entries with known answers
{"columns": ["compound", "cat"],
 "data": [
  ["CC(NC(=O)OC(C)(C)C)C(=O)Nc1nc2ccc(Cl)cc2c2nc(-c3ccco3)nn12 (stereo not given)", "Yes"],
  ["COC(=O)CCCCCCC(=O)Nc1nc2ccc(Cl)cc2c2nc(-c3ccco3)nn12", "No"]
]}

Read the next record carefully.
Query string: Is the reported Selectivity ratio for O=C(/C=C/c1ccccc1)Nc1nc2ccc(Cl)cc2c2nc(-c3ccco3)nn12 strictly below 0.1?
Result string: No

====

Below: a set of entries, each annotated with reported Ki.
Sequence of the target: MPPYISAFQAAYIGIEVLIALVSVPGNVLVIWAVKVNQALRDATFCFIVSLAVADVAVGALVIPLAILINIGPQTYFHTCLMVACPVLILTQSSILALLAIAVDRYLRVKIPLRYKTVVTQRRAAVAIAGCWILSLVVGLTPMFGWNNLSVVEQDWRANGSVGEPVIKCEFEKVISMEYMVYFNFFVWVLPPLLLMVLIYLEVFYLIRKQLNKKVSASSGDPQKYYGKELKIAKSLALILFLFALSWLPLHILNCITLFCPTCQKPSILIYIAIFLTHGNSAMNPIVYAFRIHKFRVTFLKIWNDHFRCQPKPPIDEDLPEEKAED

Known results for compounds:
{"columns": ["compound", "result"],
 "data": [
  ["CCO/C(O)=C1\\C(C)=NC(c2ccccc2)=C(C(=O)OCc2ccc([N+](=O)[O-])cc2)C1C#Cc1ccccc1 (centres undefined)", "> 0.1 µM"],
  ["O=C(Cc1ccccc1I)Nc1nc2ccc(Cl)cc2c2nc(-c3ccco3)nn12", "2.3 µM"],
  ["O=C(Nc1nc2ccc(Cl)cc2c2nc(-c3ccco3)nn12)C(c1ccccc1)c1ccccc1", "0.129 µM"],
  ["C[C@H](N)C(=O)Nc1nc2ccc(Cl)cc2c2nc(-c3ccco3)nn12", "0.39 µM"],
  ["O=C(Cc1ccc(I)cc1)Nc1nc2ccc(Cl)cc2c2nc(-c3ccco3)nn12", "0.0138 µM"],
  ["CC(C)(C)OC(=O)NCCC(=O)Nc1nc2ccc(Cl)cc2c2nc(-c3ccco3)nn12", "0.031 µM"],
  ["O=C(CCCCC(=O)OCc1ccccc1)Nc1nc2ccc(Cl)cc2c2nc(-c3ccco3)nn12", "0.304 µM"],
  ["NCCCCC(=O)Nc1nc2ccc(Cl)cc2c2nc(-c3ccco3)nn12", "0.00699 µM"]
]}

Proceed to the following item.
Query string: Item CC(C(=O)Nc1nc2ccc(Cl)cc2c2nc(-c3ccco3)nn12)(c1ccccc1)c1ccccc1 : provide Ki
Result string: 0.89 µM

====

Target sequence: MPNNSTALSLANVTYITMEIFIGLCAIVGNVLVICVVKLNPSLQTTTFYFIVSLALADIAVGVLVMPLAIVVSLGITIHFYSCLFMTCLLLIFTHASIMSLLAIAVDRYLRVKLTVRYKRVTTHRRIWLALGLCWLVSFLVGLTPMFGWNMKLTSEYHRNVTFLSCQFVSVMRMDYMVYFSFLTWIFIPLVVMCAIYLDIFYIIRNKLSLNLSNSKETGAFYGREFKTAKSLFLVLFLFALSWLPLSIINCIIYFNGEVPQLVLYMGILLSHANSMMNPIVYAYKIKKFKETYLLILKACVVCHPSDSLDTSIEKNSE
measured endpoint: Ki (µM)
I only need the number, in µM, no unit after it.

Worked examples follow.
{"columns": ["compound", "numeric value"],
 "data": [
  ["C[C@H](N)C(=O)Nc1nc2ccc(Cl)cc2c2nc(-c3ccco3)nn12", 1.2],
  ["CC(C)(C)OC(=O)NCCCCCC(=O)Nc1nc2ccc(Cl)cc2c2nc(-c3ccco3)nn12", 0.0338],
  ["COC(=O)CCCCCCC(=O)Nc1nc2ccc(Cl)cc2c2nc(-c3ccco3)nn12", 0.059],
  ["CC(C)(C)OC(=O)NCCCCCCC(=O)Nc1nc2ccc(Cl)cc2c2nc(-c3ccco3)nn12", 0.0537],
  ["CC(NC(=O)OC(C)(C)C)C(=O)Nc1nc2ccc(Cl)cc2c2nc(-c3ccco3)nn12 (stereo unspecified)", 0.0829]
]}

Query string: In one line, give reported Ki of the entry C[C@H](C(=O)Nc1nc2ccc(Cl)cc2c2nc(-c3ccco3)nn12)c1ccccc1 .
Result string: 0.000362
